B1: KRT15 (parent)
chain: SNFHINVEESVDGQVVSSHKREI

variants of: B1; experiment: protein stability index of a GFP-peptide fusion (GPS, HEK-293T) (PSI 1-6); higher = more stable; conditions: c terminus: native;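 note: lentivirally expressed fusions sorted by FACS into six bins by GFP to DsRed ratio, PSI derived from sequencing read proportions per bin multiplied by bin number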
Everything with protein stability index lower than 2 is -1; everything else, including exactly 2, is 1.

Consider the following illustrative entries.
Prompt: Could you verify whether the entry "K20M" shows protein stability index of no less than 2?
Completion: 1

Prompt: Test whether the variant "E9T" records protein stability index of 2 or higher.
Completion: 1

Prompt: API: above_or_equal(metric=protein stability index, cutoff=2) for item "N2I"
Completion: 1

Prompt: Hi team, for "S10Y" , is the recorded protein stability index at or above 2?
Completion: 1

Prompt: Tell me whether protein stability index is at least 2 here: "V11C"
Completion: 1

Others:
Prompt: Decide: protein stability index of "S18T" >= 2?
Completion: -1
